B1: library; numbered along this chain (parent)
chain: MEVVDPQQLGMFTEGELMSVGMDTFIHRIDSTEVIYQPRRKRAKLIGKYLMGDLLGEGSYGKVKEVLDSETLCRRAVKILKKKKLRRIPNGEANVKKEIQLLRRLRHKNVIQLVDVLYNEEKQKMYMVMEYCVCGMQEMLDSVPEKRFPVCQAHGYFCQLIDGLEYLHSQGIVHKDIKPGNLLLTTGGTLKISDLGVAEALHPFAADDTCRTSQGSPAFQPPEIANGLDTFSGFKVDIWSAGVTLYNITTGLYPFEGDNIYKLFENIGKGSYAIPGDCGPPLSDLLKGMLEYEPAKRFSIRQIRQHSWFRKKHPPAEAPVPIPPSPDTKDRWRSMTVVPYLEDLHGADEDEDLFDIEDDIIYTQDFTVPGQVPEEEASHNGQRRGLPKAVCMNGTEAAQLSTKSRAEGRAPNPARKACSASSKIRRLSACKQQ

# Variants of: B1
# experiment_description: STK11 functional score (HeLa growth suppression), rescaled enrichment; synonymous median = 1, nonsense median = 0 (normalised score)
# test_context: with HeLa; variant type: missense
// No strictly below 1 in STK11 functional score; Yes otherwise

mutant_name | label_class
S240Q | No
M11V | Yes
E291H | Yes
K124Q | Yes
L201D | No
E265V | Yes
P281N | Yes
T363S | Yes
K312V | Yes
Y36M | No
C158R | Yes
S216I | No
P321S | Yes
I161F | No
L167I | Yes
N412D | Yes
G408M | Yes
R42S | Yes
K124N | Yes
S401H | Yes
F231E | Yes
E2V | Yes
L353S | Yes
A218E | Yes
F354Q | Yes
G408I | Yes
D194G | No
G10A | Yes
L245W | No
K83N | Yes
F298G | No
W332M | Yes
F354P | Yes
A153P | No
G279Y | Yes
S422F | Yes
V320P | Yes
R383V | Yes
T250L | Yes
L85W | Yes
I424C | Yes
L400A | Yes
Y49M | Yes
M335G | Yes
L427E | Yes
G381T | Yes
A410V | Yes
D348Q | Yes
F157W | No
C134G | No
E33I | No
K122E | No
I111P | Yes
V4G | Yes
K235C | Yes
E407M | Yes
V20L | No
F255Y | Yes
P144V | No
S419K | Yes
Q364C | Yes
T189N | No
